- Tested System: Cholesteryl ester transfer protein (Homo sapiens)
- Sequence (P11597 whole entry): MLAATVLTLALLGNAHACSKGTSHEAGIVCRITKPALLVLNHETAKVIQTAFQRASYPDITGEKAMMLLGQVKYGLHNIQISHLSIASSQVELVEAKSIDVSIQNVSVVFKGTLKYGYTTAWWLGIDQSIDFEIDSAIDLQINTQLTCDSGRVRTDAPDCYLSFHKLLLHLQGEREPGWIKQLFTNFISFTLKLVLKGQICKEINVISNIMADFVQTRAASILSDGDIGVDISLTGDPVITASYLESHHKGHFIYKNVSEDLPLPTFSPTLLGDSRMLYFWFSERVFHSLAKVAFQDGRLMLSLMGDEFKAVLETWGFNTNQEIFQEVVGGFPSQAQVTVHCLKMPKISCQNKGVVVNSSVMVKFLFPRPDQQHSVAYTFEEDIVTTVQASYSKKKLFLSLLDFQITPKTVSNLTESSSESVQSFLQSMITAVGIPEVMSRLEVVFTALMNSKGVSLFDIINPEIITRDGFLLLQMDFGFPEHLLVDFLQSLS
- Protocol Summary: Inhibition of recombinant CETP by BODIPY-CE fluorescence assay
Reported Metric: IC50 (µM)
Numbers only; they are read as µM.

Item COc1ccc(C(CC(=O)c2ccccc2)Nc2ccc(Cl)cc2)cc1OC (stereo unspecified) was tested on Cholesteryl ester transfer protein (Homo sapiens); the reported IC50 is 8.06

====

Reported log10 IC50 values follow for various molecules
- Tested System: Cholesteryl ester transfer protein (Homo sapiens)
- Protocol Summary: Inhibition of full-length human recombinant CETP expressed in CHO cells by BODIPY-CE fluorescence assay
All values: base-10 log of IC50 in µM.

Answered cases to consult:
                                 cpd_smiles                             tested_system  data_value
0  O=C(CCN(Cc1ccc(F)cc1)c1ccc(Cl)c(C(F)(F)F)c1)N1CCN(c2ccccc2)CC1  Cholesteryl ester transfer protein (Homo sapiens)        1.58
1  CC(C)(C)NC(=O)CCN(Cc1ccc(F)cc1)c1ccc(Cl)c(Cl)c1  Cholesteryl ester transfer protein (Homo sapiens)        1.47
2  O=C(CCN(Cc1ccc(F)cc1)c1cccc(-c2ccccc2)c1)N1CCN(c2ccccc2)CC1  Cholesteryl ester transfer protein (Homo sapiens)        1.05
3  O=C(CCN(Cc1ccc(F)cc1)c1ccc(Cl)c(Cl)c1)N1CCN(c2ccccc2)CC1  Cholesteryl ester transfer protein (Homo sapiens)        0.72

Continue with the next molecule.
Briefly, log10 IC50 measured for CCOC(=O)c1ccc(N2CCN(C(=O)CCN(Cc3ccc(F)cc3)c3cccc(-c4ccccc4)c3)CC2)cc1 : 0.49

====

Reported IC50 values follow for various molecules
- Tested System: UniProt P11597
- Protocol Summary: Inhibition of full-length human recombinant CETP expressed in CHO cells by BODIPY-CE fluorescence assay
Numbers only; they are read as µM.

In [3]: df
Out[3]:
                                 cpd_smiles  unit_tag  data_value
0  Cc1cc(N(CCC(=O)N2CCN(c3ccccc3)CC2)Cc2ccc(F)cc2)ccc1Br        µM        13.9
1  O=C(CCN(Cc1ccc(F)cc1)c1ccc(Cl)c(Cl)c1)N1CCN(c2ncccn2)CC1        µM        11.8
2  COc1ccc(N2CCN(C(=O)CCN(Cc3ccc(F)cc3)c3cccc(-c4ccccc4)c3)CC2)cc1        µM         7.3

Continue with the next molecule.
Item O=C(CCN(Cc1ccc(F)cc1)c1ccc(Cl)c(Cl)c1)NC1CCCCC1 was tested on UniProt P11597; the reported IC50 is 10.7

Taken from ChEMBL document CHEMBL3784930.
